System: A549 NSCLC
EXPERIMENTAL_PROTOCOL: NCI tumour cell line growth inhibition, 48 h
ASSAY_ENDPOINT: TGI (µM)
Give bare numbers, in µM.

IN: Recorded TGI of COc1cc2c(cc1OC)[C@@H]1C(=O)c3cc4c(cc3[C@@H]1N(CCN(C)C)C2=O)OCO4 , please.
OUT: 3.67

List reported TGI for each of these compounds:
1. COc1ccc2nc3cc(Cl)ccc3c(Nc3ccc(O)c(CN4CCN(C)CC4)c3)c2c1
2. CCCCCCCCCc1c(Cl)nc(Cl)nc1Cl
3. OCCCc1n(Cc2ccc3ccccc3c2)c2ccccc2[n+]1Cc1ccc2ccccc2c1

OUT:
[3.47, 37.6, 31.4]

====

Tested on: MALME-3M melanoma
ASSAY_ENDPOINT: GI50

Here are 7 molecules. What values of GI50 were reported for them?
1. c1ccc2nc3c(cc2c1)Sc1cc2ccccc2[n+]2c1N3CC2
2. COc1ccc(C(=O)/C=C/c2c(OC)cc(OC)cc2OC)c(OC)c1
3. COc1ccc(-c2nn(C(=O)NCCN(C)C)cc2-c2ccncc2)cc1Cl
4. O=C1c2ccccc2C(=O)c2c(Nc3ccc(CCO)cc3)ccc(O)c21
5. COc1ccc([As]=[As]c2ccc(OC)c(NCS(=O)(=O)O)c2)cc1NCS(=O)(=O)O (stereo not drawn)
6. C/C(=N\NC(=O)c1ccc(C(C)(C)C)cc1)c1ccc(O)cc1O
7. CC12OC(CC(O)C1O)n1c3ccccc3c3c4c(c5c6ccccc6n2c5c31)C(=O)N(CCN1CCCC1)C4=O (stereo not drawn)

OUT:
["4170 nM", "7440 nM", "11800 nM", "12800 nM", "1410 nM", "1140 nM", "1300 nM"]

IN: Looking for the measured GI50 of COc1cc2c3c(n(CCCn4ccnc4)c(=O)c2cc1OC)-c1cc2c(cc1C3=O)OCO2 , can you help?
OUT: 791 nM

====

System: OVCAR-5 ovarian
EXPERIMENTAL_PROTOCOL: NCI tumour cell line growth inhibition, 48 h
ASSAY_ENDPOINT: TGI

# annotated cases, reported TGI shown
IN: Query TGI on OVCAR-5 ovarian for O=C(Nc1ccc(F)cc1)C(=O)C(C(=O)c1ccccc1F)C1OC(=O)c2ccccc21 (centres undefined)
OUT: > 100 µM

IN: Same again, this time with C[O+]=c1cccc2ssnc1-2
OUT: > 100 µM

IN: Lookup COc1cc2c(cc1OC)[C@@H]1C(=O)c3cc4c(cc3[C@@H]1N(CCN(C)C)C2=O)OCO4
OUT: 15.5 µM

IN: Query CCc1ccccc1NC(=O)C1=C(C)NC(C)=C(C(=O)Nc2ccccc2CC)C1c1cccc([N+](=O)[O-])c1 next
OUT: > 100 µM

IN: Param item: O=C(O)c1ccc(Cc2ccccc2C(=O)O)cc1
OUT: > 100 µM

Give TGI for each of the items listed below.
1. COc1cc(/C=C2\CN(S(=O)(=O)c3ccc(C)cc3)C/C(=C\c3cc(CN4CCOCC4)c(O)c(OC)c3)C2=O)cc(CN2CCOCC2)c1O
2. OC[C@@H]1CC#C/C=C\C#CC[C@@H]1CO

OUT:
["> 100 µM", "> 100 µM"]

// for each molecule in input: emit TGI
1. Cc1cc(S(=O)(=O)O)ccc1N=Nc1c(O)ccc2ccccc12
2. O=C(c1ccccc1)c1c(C(F)(F)F)n([O-])c2ccc(F)cc2[n+]1=O
3. CC(C)(C)OC(=O)NC(Cc1ccc(OCc2ccccc2)cc1)C(=O)NC(COCc1ccccc1)C(=O)Oc1c(Cl)c(Cl)c(Cl)c(Cl)c1Cl (centres undefined)
4. COc1ccc2nc3cc(Cl)ccc3c(Nc3ccc(O)c(CN4CCN(C)CC4)c3)c2c1
5. COc1cccc(C(=O)c2sc(Nc3ccc(N4CCN(C(C)C)CC4)cc3)nc2N)c1
6. OC1c2c(ccc3c2CCC3)CC12Cc1ccccc1C2 (centres undefined)
7. O=C(CI)OCC(COC(=O)CI)OC(=O)CI
8. O=CC12c3ccccc3C(c3ccccc31)C1C(=O)NC(=O)C12 (centres undefined)

OUT:
1. > 100 µM
2. 4.13 µM
3. 67.3 µM
4. 5.34 µM
5. > 22.4 µM
6. 31.3 µM
7. 32.8 µM
8. > 100 µM

Give TGI for each of the items listed below.
1. CC12OC(CC(O)C1O)n1c3ccccc3c3c4c(c5c6ccccc6n2c5c31)C(=O)N(CCN1CCCC1)C4=O (centres undefined)
2. O=C1/C(=N\O)C2CCC1C2 (centres undefined)
3. C#CCCCC(=C)C[C@@H]1OC(=O)[C@H](C)[C@@H]1O
4. Clc1ccc(C2=Nc3ccccc3SC(c3cccs3)C2)cc1 (centres undefined)
5. CC=C(CBr)CCC(Br)C(C)(C)Cl (mixture of isomers)
6. O=[N+]([O-])c1ccc(N/N=C2\C=CCCC2)c([N+](=O)[O-])c1

OUT:
14.9 µM
> 100 µM
> 100 µM
27.6 µM
> 10 µM
> 100 µM

Record TGI for all entries; do not skip any.
1. COc1ccc(-c2cc(=O)oc3ccc(Cl)cc23)cc1F
2. COc1ccc(N=NC(=O)NC(CC(C)C)C(=O)NC(Cc2ccccc2)C(=O)O)cc1 (centres undefined)
3. COc1ccc(-c2cc(=O)c3cc(C)cnc3[nH]2)cc1
4. CCN(Cc1cccnc1)c1ccc(CO)c(Cl)c1
5. CC(C)=CC1CC(=O)C1(C)Sc1ccccc1 (centres undefined)
6. Cc1ccc(C2C(C(=O)C(C)(C)C)N2S(=O)(=O)c2ccc(C)cc2)cc1 (centres undefined)

OUT:
1: > 100 µM; 2: > 100 µM; 3: > 100 µM; 4: 0.915 µM; 5: > 100 µM; 6: 49.3 µM

Field: TGI. Fill in for each record below.
1. CCO.CCO.Oc1ccc(Nc2ncns2)cc1.Oc1ccc(Nc2ncns2)cc1.[Ti]
2. COc1ccc(-c2nn(C(=O)NCCN(C)C)cc2-c2ccncc2)cc1Cl
3. Cn1c(-c2ccccc2)c2cc3nc4ccccc4nc3cc2c1-c1ccccc1
4. Cc1cc2c(cc1C)[n+](=O)c(C(=O)C(C)(C)C)c(C(F)(F)F)n2[O-]
5. CCOc1ccc(Nc2nc(C)c(C(=O)/C=C/c3ccc(Cl)cc3Cl)s2)cc1
6. CN(C)c1ccc(/C=C(\C#N)c2nc(-c3cc4ccccc4oc3=O)cs2)cc1
7. Nc1ncc(-c2ccc3ncnc(N4CCc5ccc(Cl)cc54)c3c2)cn1

OUT:
1. > 100 µM
2. > 100 µM
3. > 100 µM
4. 54.2 µM
5. > 100 µM
6. > 50 µM
7. > 100 µM

Your task in this section: give TGI for each listed record.
1. O=C(CNC(=O)c1ccccc1)Oc1c(Cl)c(Cl)c(Cl)c(Cl)c1Cl
2. Cc1ccc(/C=C2\COc3ccc(O)c(O)c3C2=O)cc1
3. N#CCCN(c1ccc(/C=N/c2nc(-c3ccccc3)cs2)cc1)S(=O)(=O)c1ccccc1
4. COc1ccc(/C=N/Nc2nc(-c3cc4oc(=O)n(C)c4cc3Cl)cs2)cc1OC
5. O=C(NCc1ccccc1)c1cc2ccccc2oc1=Nc1ccccc1F

OUT:
> 100 µM
3.98 µM
> 100 µM
> 100 µM
> 100 µM

====

System: PC-3 prostate
EXPERIMENTAL_PROTOCOL: NCI tumour cell line growth inhibition, 48 h; in the data active = GI50 below about 0.43 µM; inactive = the rest
Respond with a class label; see active, inactive

IN: I'd appreciate the recorded outcome for O=C1Nc2ccccc2/C1=C/C(=O)c1ccc(N2CCCC2)cc1 from this test.
OUT: inactive

Next:
IN: Test call, this compound: O=C1c2ccccc2-c2c1c1ccc([N+](=O)[O-])cc1c(=O)n2CCCN1CCOCC1
OUT: active

IN: Follow-up entry: OCc1cn(Cc2ccc(Cl)cc2)c2ccccc12
OUT: inactive

IN: Check COC1C(O)CC(OC2CC(OC3CC(O[C@@H]4C(=O)c5c(cc6cc(OC7CC(OC8CC(O)C(O)C(C)O8)C(O)C(C)O7)c(C)c(O)c6c5O)CC4[C@H](OC)C(=O)C(C)=O)OC(C)C3O)OC(C)C2O)OC1C (stereo not given in full) too.
OUT: active

IN: Same question, Cc1cc2c(cc1C)[n+](=O)c(C(=O)C(C)(C)C)c(C(F)(F)F)n2[O-] this time
OUT: inactive

IN: Continue with O=C(Cc1csc2nc(-c3ccc(Br)cc3)cn12)N/N=C/c1ccccc1
OUT: inactive

IN: Next up: CCN(Cc1cccnc1)c1ccc(CO)c(Cl)c1
OUT: inactive

IN: Same again, this time with COc1cc(/C=C2\CN(S(=O)(=O)c3ccc(C)cc3)C/C(=C\c3cc(CN4CCOCC4)c(O)c(OC)c3)C2=O)cc(CN2CCOCC2)c1O
OUT: inactive

IN: Here is the next compound: CC12OC(CC(O)C1O)n1c3ccccc3c3c4c(c5c6ccccc6n2c5c31)C(=O)N(CCN1CCCC1)C4=O (stereo not given)
OUT: inactive

IN: And what about the compound C/C(=N\NC(=O)c1ccc(C(C)(C)C)cc1)c1ccc(O)cc1O ?
OUT: inactive
